Tested on: human neuroblastoma cell line GOTO
protocolDescription: Activity on neuroblastoma cell line GOTO (cell number, number and length of neurites)
Type: cell-based
experimentalContext: Table 1 Run No. 2; 1 μg/ml; control 2.06 ± 0.60
valueKind: Number of neurites/cell (mean ± S.D.) (neurites/cell)
Give bare numbers, in neurites/cell.

Hey, can you go through the list below and give me Number of neurites/cell (mean ± S.D.) for every item?
1. CN1Cc2nc(N3CCNCC3)ncc2C1=O [Compound 604]
2. CCNc1nc(N2CCNCC2)ncc1C(=O)OC [Compound 136]
3. CN1C(=O)Cc2cnc(N3CCNCC3)nc21 [Compound 408]
4. CC(C)Nc1ncccn1.O=P(O)(O)O [Isaxonine, reference compound]
5. CCn1ccc2nc(N3CCNCC3)ncc2c1=O [Compound 710]

1. 2.29
2. 2.14
3. 2.11
4. 2.09
5. 2.14

###

protocolDescription: Acute toxicity, mouse
Assay type: in vivo
experimentalContext: in vivo, po, Table 7, p.o., read-out: Presumed LD50
Procedure: The acute toxicity of the compounds of the invention was examined by the following method. Male ddy-strain 5-week old mice and male Wistar-strain 8 week old rats, five per group, were used as experimental animals. Each of the compounds was dissolved in saline and administered perorally, and the toxicity of the compound was assessed 24 hours after the administration.
valueKind: LD50 at 24 h

| molecule | LD50 at 24 h |
| --- | --- |
| O=C1Cc2cnc(N3CCNCC3)nc2N1 [Compound 424] | > 1000 mg/kg |
| CN1C(=O)Cc2cnc(N3CCNCC3)nc21 [Compound 406] | > 1000 mg/kg |
| Cc1nc(N2CCNCC2)nc2c1CC(=O)N2C [Compound 468] | > 1000 mg/kg |

What does the record list as LD50 at 24 h for COCCN1C(=O)Cc2cnc(N3CCNCC3)nc21 [Compound 428] ?
> 1000 mg/kg

###

For each entry below, report its Length of neurites (mean ± S.D.) value.
System: human neuroblastoma cell line GOTO
protocolDescription: Activity on neuroblastoma cell line GOTO (cell number, number and length of neurites)
Type: cell-based
experimentalContext: Table 1, Run No. 6 by footnote; 1 μg/ml; control 42.48 ± 19.64; all *P <0.01
One number for each entry, in μm/cell.

Consider the following illustrative entries.
| compound | u | Length of neurites (mean ± S.D.) |
| --- | --- | --- |
| CCN1Cc2nc(N3CCNCC3)ncc2C1=O [Compound 616] | μm/cell | 56.68 |
| CC(C)N1Cc2nc(N3CCNCC3)ncc2C1=O [Compound 628] | μm/cell | 55.72 |
| CN1Cc2nc(N3CCNCC3)ncc2C1=O [Compound 604] | μm/cell | 58.88 |

Next compound, Length of neurites (mean ± S.D.) to be filled in.
What does the record list as Length of neurites (mean ± S.D.) for CC(C)Nc1ncccn1.O=P(O)(O)O [Isaxonine, reference compound] ?
58.20

###

Tested on: human neuroblastoma cell line GOTO
protocolDescription: Activity on neuroblastoma cell line GOTO (cell number, number and length of neurites)
Format: cell-based
experimentalContext: Table 1, second control group (Run No. 6 by footnote); 1 μg/ml; control 1.79 ± 0.80
valueKind: Number of neurites/cell (mean ± S.D.) (neurites/cell)
Answers are plain numbers, in neurites/cell.

Consider the following illustrative entries.
| molecule | experimentalTarget | u | observedMeasurement |
| --- | --- | --- | --- |
| CCN1Cc2nc(N3CCNCC3)ncc2C1=O | human neuroblastoma cell line GOTO | neurites/cell | 2.04 |
| CC(C)N1Cc2nc(N3CCNCC3)ncc2C1=O | human neuroblastoma cell line GOTO | neurites/cell | 1.90 |
| CC(C)Nc1ncccn1.O=P(O)(O)O [Isaxonine, reference compound] | human neuroblastoma cell line GOTO | neurites/cell | 2.00 |

Next molecule, Number of neurites/cell (mean ± S.D.) to be filled in.
What does the record list as Number of neurites/cell (mean ± S.D.) for CN1Cc2nc(N3CCNCC3)ncc2C1=O ?
2.23

###

Test system: mice
protocolDescription: Acute toxicity, mouse
Assay type: in vivo
experimentalContext: Table 6, 1000 mg/kg p.o., 24 hours
For each entry below, report its Number of dead animals/number of test animals value.

Consider the following illustrative entries.
| structureString | observedMeasurement |
| --- | --- |
| Cn1ccc2nc(N3CCNCC3)ncc2c1=O | 4/5 |
| O=c1[nH]ccc2nc(N3CCNCC3)ncc12 | 5/5 |
| c1cnc(N2CCNCC2)nc1 | 3/5 |
| CCOC(=O)c1cnc(N2CCNCC2)nc1C(=O)OCC | 3/5 |
| CCn1cc(C=O)c2nc(N3CCNCC3)ncc2c1=O | 3/5 |
| CC(C)n1ccc2nc(N3CCNCC3)ncc2c1=O | 2/5 |

Hey, can you go through the list below and give me Number of dead animals/number of test animals for every item?
1. CCOC(=O)c1cnc(N2CCNCC2)nc1N
2. CCCCOc1ccnc(N2CCNCC2)n1
3. CCCn1ccc2nc(N3CCNCC3)ncc2c1=O
4. CCn1ccc2nc(N3CCNCC3)ncc2c1=O

1. 4/5
2. 4/5
3. 4/5
4. 5/5

###

Tested on: mice
protocolDescription: Acute toxicity, mouse
Type: in vivo
experimentalContext: Table 6, 500 mg/kg p.o., 24 hours
For each entry below, report its Number of dead animals/number of test animals value.

| structureString | observedMeasurement |
| --- | --- |
| CCn1cc(C=O)c2nc(N3CCNCC3)ncc2c1=O | 0/5 |

Hey, can you go through the list below and give me Number of dead animals/number of test animals for every item?
1. CCCn1ccc2nc(N3CCNCC3)ncc2c1=O
2. CCOC(=O)c1cnc(N2CCNCC2)nc1N
3. CCn1ccc2nc(N3CCNCC3)ncc2c1=O
4. CC(C)n1ccc2nc(N3CCNCC3)ncc2c1=O
5. O=c1[nH]ccc2nc(N3CCNCC3)ncc12

1. 0/5
2. 1/5
3. 3/5
4. 0/5
5. 3/5

###

protocolDescription: Acute toxicity, mouse
Format: in vivo
experimentalContext: in vivo, po, Table 6, p.o., read-out: Presumed LD50
For each entry below, report its LD50 at 24 h value.

Consider the following illustrative entries.
| structureString | LD50 at 24 h |
| --- | --- |
| CCCCOc1ccnc(N2CCNCC2)n1 | 300 to 550 mg/kg |
| CC(C)n1ccc2nc(N3CCNCC3)ncc2c1=O | > 1000 mg/kg |
| CCOC(=O)c1cnc(N2CCNCC2)nc1C(=O)OCC | 550 to 1000 mg/kg |

Hey, can you go through the list below and give me LD50 at 24 h for every item?
1. CCn1cc(C=O)c2nc(N3CCNCC3)ncc2c1=O
2. Cn1ccc2nc(N3CCNCC3)ncc2c1=O
3. CCn1ccc2nc(N3CCNCC3)ncc2c1=O
4. c1cnc(N2CCNCC2)nc1
5. CCCn1ccc2nc(N3CCNCC3)ncc2c1=O
6. O=c1[nH]ccc2nc(N3CCNCC3)ncc12
7. CCOC(=O)c1cnc(N2CCNCC2)nc1N

["550 to 1000 mg/kg", "550 to 1000 mg/kg", "300 to 550 mg/kg", "550 to 1000 mg/kg", "550 to 1000 mg/kg", "300 to 550 mg/kg", "550 to 1000 mg/kg"]

###

System: mice
protocolDescription: Acute toxicity, mouse
Format: in vivo
experimentalContext: Table 6, 500 mg/kg p.o., 24 hours
For each entry below, report its Number of dead animals/number of test animals value.

Consider the following illustrative entries.
| molecule | observedMeasurement |
| --- | --- |
| Cn1ccc2nc(N3CCNCC3)ncc2c1=O [Compound 706] | 2/5 |
| CCCCOc1ccnc(N2CCNCC2)n1 [Compound 128] | 3/5 |
| c1cnc(N2CCNCC2)nc1 [Compound 124] | 0/5 |

Next molecule, Number of dead animals/number of test animals to be filled in.
What does the record list as Number of dead animals/number of test animals for CCOC(=O)c1cnc(N2CCNCC2)nc1C(=O)OCC [Compound 144] ?
0/5

###

Tested on: mouse neuroblastoma cell line neuro-2a
protocolDescription: Activity on cell line neuro-2a (simple method)
Assay type: cell-based
experimentalContext: Table 2 neuro-2a Run No. 2; 10 μg/ml; control 7.9
valueKind: Average of the proportions (%)
One number for each entry, in %.

| structureString | experimentalTarget | Average of the proportions / % |
| --- | --- | --- |
| CCN1Cc2nc(N3CCNCC3)ncc2C1=O | mouse neuroblastoma cell line neuro-2a | 18.40 |
| CN1C(=O)Cc2cnc(N3CCNCC3)nc21 | mouse neuroblastoma cell line neuro-2a | 25.05 |

Hey, can you go through the list below and give me Average of the proportions for every item?
1. CN1Cc2nc(N3CCNCC3)ncc2C1=O
2. Cn1[nH]c2nc(N3CCNCC3)ncc2c1=O

1. 17.20
2. 15.51

Source listed as patent US4959368A.
